This collection of values is drawn from patent US20140322233A1.

- System Tested: T1, human GCC, full length with myc tag (293-GCC#2 cells) (human, UniProt P25092 24-1073)
- T1 construct: not shown: myc tag
- T1 sequence (P25092 24-1073): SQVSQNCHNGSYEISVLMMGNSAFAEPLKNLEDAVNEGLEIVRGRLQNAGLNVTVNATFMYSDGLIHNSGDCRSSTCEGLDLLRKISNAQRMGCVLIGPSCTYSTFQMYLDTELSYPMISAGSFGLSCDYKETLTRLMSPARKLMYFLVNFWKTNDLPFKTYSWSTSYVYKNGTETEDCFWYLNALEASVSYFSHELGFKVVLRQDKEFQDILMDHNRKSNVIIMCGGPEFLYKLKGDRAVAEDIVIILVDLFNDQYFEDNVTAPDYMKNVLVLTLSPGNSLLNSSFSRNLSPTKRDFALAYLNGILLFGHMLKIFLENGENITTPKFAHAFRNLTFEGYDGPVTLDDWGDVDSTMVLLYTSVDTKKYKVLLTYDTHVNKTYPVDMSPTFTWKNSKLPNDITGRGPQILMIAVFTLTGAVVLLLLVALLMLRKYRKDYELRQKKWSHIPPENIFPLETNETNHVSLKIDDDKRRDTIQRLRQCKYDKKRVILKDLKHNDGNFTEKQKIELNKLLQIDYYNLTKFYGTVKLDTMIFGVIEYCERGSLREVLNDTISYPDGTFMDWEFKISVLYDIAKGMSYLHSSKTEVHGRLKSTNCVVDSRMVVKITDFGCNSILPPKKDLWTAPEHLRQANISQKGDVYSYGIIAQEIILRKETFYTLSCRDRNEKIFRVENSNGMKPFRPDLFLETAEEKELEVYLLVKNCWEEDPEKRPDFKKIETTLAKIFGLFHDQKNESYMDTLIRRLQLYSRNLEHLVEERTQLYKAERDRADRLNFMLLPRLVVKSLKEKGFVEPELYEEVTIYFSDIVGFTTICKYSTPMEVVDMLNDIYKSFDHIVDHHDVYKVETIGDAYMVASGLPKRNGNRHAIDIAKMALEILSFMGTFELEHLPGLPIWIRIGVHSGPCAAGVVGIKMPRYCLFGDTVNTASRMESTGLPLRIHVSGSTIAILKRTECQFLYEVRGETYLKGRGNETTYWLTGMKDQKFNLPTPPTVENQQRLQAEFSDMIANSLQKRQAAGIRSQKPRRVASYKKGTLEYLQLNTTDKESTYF
- Assay Method Text: indirect immunofluorescence flow cytometry, 293 GCC #2 cells;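 also: cells exposed to the test antibodies for 1 h on ice before flow cytometric readout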
Attribute Measured: MFI at 0.063 µg/ml
// print number alone

5F9-vc-MMAF (antibody, V domains shown, mc-vc-MMAF drug-linker on reduced interchain cysteines of the antibody; positions not given, Antibody drug conjugate of 5F9; average loading about four) VH: QVQLQQWGAGLLKPSETLSLTCAVFGGSFSGYYWSWIRQPPGKGLEWIGEINHRGNTNDNPSLKSRVTISVDTSKNQFALKLSSVTAADTAVYYCARERGYTYGNFDHWGQGTLVTVSS VL: EIVMTQSPATLSVSPGERATLSCRASQSVSRNLAWYQQKPGQAPRLLIYGASTRATGIPARFSGSGSGTEFTLTIGSLQSEDFAVYYCQQYKTWPRTFGQGTNVEIK	4830
5F9-mc-MMAF (antibody, V domains shown, mc-MMAF drug-linker on reduced interchain cysteines of the antibody; positions not given, Antibody drug conjugate of 5F9; average loading about four) VH: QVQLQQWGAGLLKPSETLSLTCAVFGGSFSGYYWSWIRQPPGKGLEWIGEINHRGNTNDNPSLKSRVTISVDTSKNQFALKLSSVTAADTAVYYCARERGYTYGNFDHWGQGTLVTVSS VL: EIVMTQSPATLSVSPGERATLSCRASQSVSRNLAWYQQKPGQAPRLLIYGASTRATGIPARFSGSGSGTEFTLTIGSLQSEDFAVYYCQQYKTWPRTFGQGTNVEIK	5350
5F9-vc-MMAE (antibody, V domains shown, mc-vc-MMAE drug-linker on reduced interchain cysteines of the antibody; positions not given, Antibody drug conjugate of 5F9) VH: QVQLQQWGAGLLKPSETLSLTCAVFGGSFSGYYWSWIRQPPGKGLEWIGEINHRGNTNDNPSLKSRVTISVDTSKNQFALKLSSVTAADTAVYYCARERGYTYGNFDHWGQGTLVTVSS VL: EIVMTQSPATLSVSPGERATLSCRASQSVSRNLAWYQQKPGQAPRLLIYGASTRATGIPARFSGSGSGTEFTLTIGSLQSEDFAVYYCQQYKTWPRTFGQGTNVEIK	4850

Moving on to the next binder.
Reported MFI at 0.063 µg/ml of mAb 5F9 (antibody, V domains shown, Human; hybridoma product is IgG2, kappa; also called 46.5F9.8.2; Prep A 5F9) VH: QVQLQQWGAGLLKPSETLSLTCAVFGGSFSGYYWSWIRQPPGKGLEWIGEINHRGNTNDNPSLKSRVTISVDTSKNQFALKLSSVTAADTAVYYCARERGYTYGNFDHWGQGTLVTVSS VL: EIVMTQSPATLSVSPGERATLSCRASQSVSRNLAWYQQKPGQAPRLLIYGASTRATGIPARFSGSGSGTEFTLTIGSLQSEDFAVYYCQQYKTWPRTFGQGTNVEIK : 6620
